Molecular target: T1, cyno IL-33 N-His (cynomolgus monkey)
T1 chain: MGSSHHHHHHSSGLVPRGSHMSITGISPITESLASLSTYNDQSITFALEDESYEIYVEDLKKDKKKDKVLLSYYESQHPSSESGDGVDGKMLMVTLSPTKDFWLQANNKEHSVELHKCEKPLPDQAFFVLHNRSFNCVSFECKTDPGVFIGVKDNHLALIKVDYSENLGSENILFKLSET
Test: SPR Biacore T200, 25 C
measurement_kind: koff

Some binders with recorded koff:
• H1M9566N (antibody, IgG1, V domains shown, also called RG2) VH: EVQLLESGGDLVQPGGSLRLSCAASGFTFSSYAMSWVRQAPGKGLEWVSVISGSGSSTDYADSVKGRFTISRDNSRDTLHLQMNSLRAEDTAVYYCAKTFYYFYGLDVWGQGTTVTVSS VL: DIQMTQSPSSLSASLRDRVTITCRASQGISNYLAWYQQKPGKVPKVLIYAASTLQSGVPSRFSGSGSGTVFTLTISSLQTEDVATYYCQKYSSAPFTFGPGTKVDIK = 7.66e-05 s⁻¹
• H4H9640P (antibody, IgG4, V domains shown, also called RG6) VH: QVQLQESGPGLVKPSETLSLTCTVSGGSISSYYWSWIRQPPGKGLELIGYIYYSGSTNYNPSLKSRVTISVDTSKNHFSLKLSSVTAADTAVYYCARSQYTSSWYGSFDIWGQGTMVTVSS VL: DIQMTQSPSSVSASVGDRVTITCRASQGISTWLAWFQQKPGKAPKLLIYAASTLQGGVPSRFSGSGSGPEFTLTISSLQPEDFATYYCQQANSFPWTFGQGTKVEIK = 0.000528 s⁻¹
• H4H9672P (antibody, V domains shown) VH: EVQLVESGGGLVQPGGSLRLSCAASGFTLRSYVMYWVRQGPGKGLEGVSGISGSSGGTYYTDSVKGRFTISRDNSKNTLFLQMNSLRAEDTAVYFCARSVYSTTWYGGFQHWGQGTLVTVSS VL: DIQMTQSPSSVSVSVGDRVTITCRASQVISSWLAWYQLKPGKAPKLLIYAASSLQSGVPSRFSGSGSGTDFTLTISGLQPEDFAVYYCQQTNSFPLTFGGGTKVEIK = 0.0019 s⁻¹

Q. I would be grateful if you could share the reported koff for H4H9633P (antibody, IgG4, V domains shown, also called RG5) VH: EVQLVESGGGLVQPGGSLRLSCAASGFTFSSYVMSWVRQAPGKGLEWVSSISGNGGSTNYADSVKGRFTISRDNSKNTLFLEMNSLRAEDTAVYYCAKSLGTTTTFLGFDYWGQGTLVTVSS VL: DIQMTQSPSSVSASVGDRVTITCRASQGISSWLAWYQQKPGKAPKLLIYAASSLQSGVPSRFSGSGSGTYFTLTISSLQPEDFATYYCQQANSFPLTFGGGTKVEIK .
A. 0.00337 s⁻¹

Q. I would be grateful if you could share the reported koff for H1M9559N (antibody, IgG1, V domains shown, also called RG1) VH: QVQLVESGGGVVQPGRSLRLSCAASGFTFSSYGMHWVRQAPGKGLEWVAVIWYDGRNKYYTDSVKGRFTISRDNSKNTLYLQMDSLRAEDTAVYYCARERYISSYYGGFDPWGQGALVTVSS VL: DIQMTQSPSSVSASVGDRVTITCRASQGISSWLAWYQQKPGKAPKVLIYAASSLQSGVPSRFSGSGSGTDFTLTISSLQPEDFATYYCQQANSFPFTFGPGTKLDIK .
A. 0.000458 s⁻¹
